- MEASUREMENT_NOTES: Chemical stability of compound in tween 20/ethanol/phosphate buffer at 1 mg/ml at pH 7.5 assessed as compound remaining after 6 hrs by HPLC analysis
- Type: physicochemical
- MEASUREMENT_CONDITIONS: read-out: Stability
RECORDED_METRIC: remaining at 6 h, 1 mg/ml

Qu. Request the reported remaining at 6 h, 1 mg/ml associated with N/C(CC(O)c1cc2c(F)cc(F)cc2c2cc(C(F)(F)F)ccc12)=N\N=C\c1ccc(F)cc1 (stereo unspecified)
Ans. > 95%

###

- System: Plasmodium falciparum
- MEASUREMENT_NOTES: Gametocytocidal activity against transgenic GFP-fused Plasmodium falciparum NF54 […] stage gametocytes after 72 hrs by Mitotracker Red CMH2XRos staining based confocal microscopic method
- Format: functional
- MEASUREMENT_CONDITIONS: NF54, 72 h
Measured pIC50 of individual entries
pIC50 field: float, defined as -log10 of concentration (mol/L).

Answered cases to consult:
COMPOUND | pIC50
CCN(CC)Cc1cc(/C=N/N=C(\N)CC(O)c2cc3c(F)cc(F)cc3c3cc(C(F)(F)F)ccc23)ccc1O (centres undefined) | 6.96
N/C(CC(O)c1cc2c(F)cc(F)cc2c2cc(C(F)(F)F)ccc12)=N\N=C\c1ccc(F)cc1 (centres undefined) | 7.18
N/C(CC(O)c1cc2c(Cl)cc(Cl)cc2c2cc(C(F)(F)F)ccc12)=N\N=C\c1ccc(F)cc1 (centres undefined) | 7.44

Qu. Request the reported pIC50 associated with CCN(CC)Cc1cc(/C=N/N=C(\N)CC(O)c2cc3c(Cl)cc(Cl)cc3c3cc(C(F)(F)F)ccc23)ccc1O (centres undefined)
Ans. 6.46
